Target: Serine/threonine-protein kinase Chk1 (Homo sapiens, UniProt O14757)
Sequence (O14757 whole entry): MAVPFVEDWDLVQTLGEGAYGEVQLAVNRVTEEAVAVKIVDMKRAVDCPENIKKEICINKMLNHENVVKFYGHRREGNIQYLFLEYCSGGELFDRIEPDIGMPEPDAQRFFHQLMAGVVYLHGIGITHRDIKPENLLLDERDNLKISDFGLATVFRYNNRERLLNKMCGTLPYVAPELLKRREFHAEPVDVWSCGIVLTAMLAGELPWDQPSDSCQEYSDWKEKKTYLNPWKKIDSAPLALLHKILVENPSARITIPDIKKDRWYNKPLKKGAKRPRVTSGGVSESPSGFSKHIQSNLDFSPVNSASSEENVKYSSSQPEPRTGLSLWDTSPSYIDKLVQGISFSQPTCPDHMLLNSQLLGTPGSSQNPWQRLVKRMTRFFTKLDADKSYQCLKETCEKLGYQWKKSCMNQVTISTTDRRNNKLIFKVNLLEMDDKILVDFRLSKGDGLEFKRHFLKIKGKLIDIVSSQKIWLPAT
reported_endpoint: IC50 (nM)

>  <cpd_smiles>
COc1cc2c(cc1OC)CN(CC(=O)Nc1ccc3c(c1)/C(=C/c1cnc[nH]1)C(=O)N3)CC2

>  <reported_endpoint>
IC50

>  <recorded_number>
274

$$$$

---

Molecular target: Glycogen synthase kinase-3 alpha (Homo sapiens, UniProt P49840)
Sequence (P49840 whole entry): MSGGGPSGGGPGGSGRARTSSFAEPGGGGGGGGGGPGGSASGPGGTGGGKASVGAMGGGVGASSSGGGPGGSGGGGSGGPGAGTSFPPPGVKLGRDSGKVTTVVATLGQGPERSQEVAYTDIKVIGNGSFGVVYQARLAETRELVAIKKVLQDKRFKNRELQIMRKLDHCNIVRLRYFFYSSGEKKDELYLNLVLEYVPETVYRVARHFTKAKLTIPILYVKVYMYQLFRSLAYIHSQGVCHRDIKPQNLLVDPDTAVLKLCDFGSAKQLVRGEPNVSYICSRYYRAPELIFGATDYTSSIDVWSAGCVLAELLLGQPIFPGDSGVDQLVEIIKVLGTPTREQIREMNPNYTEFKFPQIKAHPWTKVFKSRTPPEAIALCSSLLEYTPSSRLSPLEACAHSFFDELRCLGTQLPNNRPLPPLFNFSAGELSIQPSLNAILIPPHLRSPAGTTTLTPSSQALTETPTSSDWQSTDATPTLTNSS
reported_endpoint: IC50 (nM)

>  <cpd_smiles>
COc1cc2c(cc1OC)CN(CC(=O)Nc1ccc3c(c1)/C(=C/c1cnc[nH]1)C(=O)N3)CC2

>  <reported_endpoint>
IC50

>  <recorded_number>
884

$$$$

Origin of values: ChEMBL document CHEMBL3734692
